Experiment: Hemolytic activity against ovine erythrocytes at 1000 ug/ml after 30 mins relative to control
Format: ADME, cell-based, Ovis aries, Erythrocyte
Details: sheep, read-out: Activity
readout: hemolysis at 0.5 h, 1000 ug/ml

{"structure.as.smiles": "Cl.Cl.Cl.Cl.Cl.Cl.Cl.NC[C@H]1O[C@H](O[C@H]2[C@H](OCCCCCCCCCCCCN3CCN(Cc4cccc5ccccc45)CC3)[C@@H](O[C@H]3O[C@H](CO)[C@@H](O)[C@H](N)[C@H]3O)[C@H](N)C[C@@H]2N)[C@H](N)C[C@@H]1O", "result": "≤ 5%"}
{"structure.as.smiles": "Cl.Cl.Cl.Cl.Cl.Cl.NC[C@H]1O[C@H](O[C@H]2[C@H](OCCCCCCCCCCCCN3CC[C@@H](c4ccc(F)cc4)[C@H](COc4ccc5c(c4)OCO5)C3)[C@@H](O[C@H]3O[C@H](CO)[C@@H](O)[C@H](N)[C@H]3O)[C@H](N)C[C@@H]2N)[C@H](N)C[C@@H]1O", "result": "≤ 5%"}

====

System: Pseudomonas aeruginosa
Experiment: Antibacterial activity against Pseudomonas aeruginosa PAO1 after 18 to 24 hrs by microbroth dilution assay
Type: functional
For each record, check the reported MIC: if it is below 60 µg/mL write TRUE, else write FALSE.

{"structure.as.smiles": "Cl.Cl.Cl.Cl.Cl.Cl.Cl.NC[C@H]1O[C@H](O[C@H]2[C@H](OCCCCCCCCN3CCN(Cc4cccc5ccccc45)CC3)[C@@H](O[C@H]3O[C@H](CO)[C@@H](O)[C@H](N)[C@H]3O)[C@H](N)C[C@@H]2N)[C@H](N)C[C@@H]1O", "group.label": "FALSE"}
{"structure.as.smiles": "Cl.Cl.Cl.Cl.Cl.Cl.Cl.NC[C@H]1O[C@H](O[C@H]2[C@H](OCCCCCCCCCCCCN3CCN(Cc4cccc5ccccc45)CC3)[C@@H](O[C@H]3O[C@H](CO)[C@@H](O)[C@H](N)[C@H]3O)[C@H](N)C[C@@H]2N)[C@H](N)C[C@@H]1O", "group.label": "FALSE"}
{"structure.as.smiles": "NC[C@H]1O[C@H](O[C@H]2[C@H](OCCCCCCCCCCN3CCN(Cc4cccc5ccccc45)CC3)[C@@H](O[C@H]3O[C@H](CO)[C@@H](O)[C@H](N)[C@H]3O)[C@H](N)C[C@@H]2N)[C@H](N)C[C@@H]1O.O=C(O)C(F)(F)F.O=C(O)C(F)(F)F.O=C(O)C(F)(F)F.O=C(O)C(F)(F)F.O=C(O)C(F)(F)F.O=C(O)C(F)(F)F.O=C(O)C(F)(F)F", "group.label": "FALSE"}
{"structure.as.smiles": "c1ccc2c(CN3CCNCC3)cccc2c1", "group.label": "FALSE"}
{"structure.as.smiles": "Cl.Cl.Cl.Cl.Cl.Cl.NC[C@H]1O[C@H](O[C@H]2[C@H](OCCCCCCCCCCCCN3CC[C@@H](c4ccc(F)cc4)[C@H](COc4ccc5c(c4)OCO5)C3)[C@@H](O[C@H]3O[C@H](CO)[C@@H](O)[C@H](N)[C@H]3O)[C@H](N)C[C@@H]2N)[C@H](N)C[C@@H]1O", "group.label": "TRUE"}
{"structure.as.smiles": "NC[C@H]1O[C@H](O[C@H]2[C@H](O)[C@@H](O[C@H]3O[C@H](CO)[C@@H](O)[C@H](N)[C@H]3O)[C@H](N)C[C@@H]2N)[C@H](N)C[C@@H]1O", "group.label": "TRUE"}
{"structure.as.smiles": "Cl.Cl.Cl.Cl.Cl.Cl.Cl.NC[C@H]1O[C@H](O[C@H]2[C@H](OCCCCCCN3CCN(Cc4cccc5ccccc45)CC3)[C@@H](O[C@H]3O[C@H](CO)[C@@H](O)[C@H](N)[C@H]3O)[C@H](N)C[C@@H]2N)[C@H](N)C[C@@H]1O", "group.label": "FALSE"}
{"structure.as.smiles": "Cl.Cl.Cl.Cl.Cl.Cl.Cl.NC[C@H]1O[C@H](O[C@H]2[C@H](OCCCCN3CCN(Cc4cccc5ccccc45)CC3)[C@@H](O[C@H]3O[C@H](CO)[C@@H](O)[C@H](N)[C@H]3O)[C@H](N)C[C@@H]2N)[C@H](N)C[C@@H]1O", "group.label": "FALSE"}
{"structure.as.smiles": "NC[C@@H]1CN[C@@H](C(=O)N[C@H](CCc2ccccc2)C(=O)Nc2ccc3ccccc3c2)C1", "group.label": "FALSE"}
